Tested on: Escherichia coli TOP10
Assay: shrunken log2 fold change of peptide-encoding DNA abundance (4.5 h post-induction vs induction); higher = less antimicrobial activity (less host growth inhibition)
Details: time post-induction: 4.5 h; library: site-saturation at positions 5, 18, 19, 20
assay.metric: shrunken log2 fold change
I'd appreciate a reply containing only the number, no unit.

Solved cases below.
>>> endpoint_result("RRIRMRPPRLPRPRPRPYMRPRP")
0.0391
>>> endpoint_result("RRIRDRPPRLPRPRPRPLGNPRP")
-0.0332
>>> endpoint_result("RRIRMRPPRLPRPRPRPWPVPRP")
0.287
>>> endpoint_result("RRIRFRPPRLPRPRPRPVRCPRP")
0.308
>>> endpoint_result("RRIRWRPPRLPRPRPRPGVDPRP")
0.371

Pending sequence:
shrunken log2 fold change of `RRIRYRPPRLPRPRPRPTYAPRP` on Escherichia coli TOP10?
3.45

====

Each entry below lists one item and its recorded shrunken log2 fold change value.
Test system: Escherichia coli TOP10
Experiment: shrunken log2 fold change of peptide-encoding DNA abundance (4.5 h post-induction vs induction); higher = less antimicrobial activity (less host growth inhibition)
Details: time post-induction: 4.5 h; library: site-saturation at positions 5, 18, 19, 20

The following sequences have reported results that may help.
>>> endpoint_result("RRIRWRPPRLPRPRPRPDAAPRP")
2.23
>>> endpoint_result("RRIRVRPPRLPRPRPRPMPDPRP")
0.00211

Requested read-out shrunken log2 fold change, target or system Escherichia coli TOP10, entry `RRIRMRPPRLPRPRPRPSARPRP`
1.07

Fill in the recorded shrunken log2 fold change for this sequence, with Escherichia coli TOP10 as test system: `RRIRQRPPRLPRPRPRPPWSPRP`
0.223

Short answer please: shrunken log2 fold change, Escherichia coli TOP10, entry `RRIRCRPPRLPRPRPRPIQDPRP`
-0.49

Give shrunken log2 fold change (Escherichia coli TOP10) of the following sequence: `RRIRNRPPRLPRPRPRPYQAPRP`
0.036

====

Tested on: Escherichia coli TOP10
Experiment: shrunken log2 fold change of peptide-encoding DNA abundance (4.5 h post-induction vs induction); higher = less antimicrobial activity (less host growth inhibition)
Details: time post-induction: 4.5 h; library: site-saturation at positions 5, 18, 19, 20
assay.metric: shrunken log2 fold change
I only need the number, thanks.

Look over these answered cases.
>>> endpoint_result("RRIRHRPPRLPRPRPRPDEKPRP")
-0.00141
>>> endpoint_result("RRIRCRPPRLPRPRPRPAGTPRP")
-0.202
>>> endpoint_result("RRIRNRPPRLPRPRPRPVRDPRP")
0.177

Turning now to a further sequence:
Returns the measured shrunken log2 fold change for the input sequence. Input: `RRIRSRPPRLPRPRPRPINRPRP`
-0.225

====

Test system: Escherichia coli TOP10
Assay: shrunken log2 fold change of peptide-encoding DNA abundance (4.5 h post-induction vs induction); higher = less antimicrobial activity (less host growth inhibition)
Conditions: time post-induction: 4.5 h; library: site-saturation at positions 5, 18, 19, 20
assay.metric: shrunken log2 fold change
Enter the number alone.

Item `RRIRWRPPRLPRPRPRPKIFPRP` has what recorded shrunken log2 fold change?
-0.249

====

System: Escherichia coli TOP10
Assay: shrunken log2 fold change of peptide-encoding DNA abundance (4.5 h post-induction vs induction); higher = less antimicrobial activity (less host growth inhibition)
Conditions: time post-induction: 4.5 h; library: site-saturation at positions 5, 18, 19, 20
Property: shrunken log2 fold change; scope: individual sequences
A bare number is all that is needed in reply.

Examples from the recorded data:
>>> endpoint_result("RRIRRRPPRLPRPRPRPQWPPRP")
0.00418
>>> endpoint_result("RRIRRRPPRLPRPRPRPGEIPRP")
0.321
>>> endpoint_result("RRIRQRPPRLPRPRPRPVQSPRP")
0.0508

Look at this sequence and give its reported shrunken log2 fold change. `RRIRCRPPRLPRPRPRPPYKPRP`
-0.511

Entry `RRIRARPPRLPRPRPRPIVNPRP` : reported shrunken log2 fold change = ?
-0.178

Query: shrunken log2 fold change; subject: `RRIRYRPPRLPRPRPRPDNWPRP`
-0.38

====

Tested on: Escherichia coli TOP10
Assay: shrunken log2 fold change of peptide-encoding DNA abundance (4.5 h post-induction vs induction); higher = less antimicrobial activity (less host growth inhibition)
Conditions: time post-induction: 4.5 h; library: site-saturation at positions 5, 18, 19, 20
# shrunken log2 fold change >= 0.06 gives 1, anything below gives -1

These recorded examples may help you get a feel for the data.
>>> assigned_class("RRIRPRPPRLPRPRPRPDQEPRP")
-1
>>> assigned_class("RRIRSRPPRLPRPRPRPWHQPRP")
-1
>>> assigned_class("RRIRWRPPRLPRPRPRPYIRPRP")
-1
>>> assigned_class("RRIRCRPPRLPRPRPRPSPAPRP")
1
>>> assigned_class("RRIRYRPPRLPRPRPRPFMYPRP")
-1
>>> assigned_class("RRIRCRPPRLPRPRPRPMTYPRP")
-1
>>> assigned_class("RRIRHRPPRLPRPRPRPEDVPRP")
-1
>>> assigned_class("RRIRKRPPRLPRPRPRPMPWPRP")
1
>>> assigned_class("RRIRIRPPRLPRPRPRPSARPRP")
-1
>>> assigned_class("RRIRTRPPRLPRPRPRPFTWPRP")
-1

Could you tell me if the measured shrunken log2 fold change of `RRIRNRPPRLPRPRPRPKGHPRP` reaches 0.06 or more?
-1

# check: shrunken log2 fold change of `RRIRSRPPRLPRPRPRPDTNPRP` is greater than or equal to 0.06
-1

Say whether `RRIRERPPRLPRPRPRPQEFPRP` shows shrunken log2 fold change of 0.06 or more.
-1

Confirm if shrunken log2 fold change reported for the sequence `RRIRERPPRLPRPRPRPGDYPRP` is 0.06 or above.
-1

Evaluate `RRIRFRPPRLPRPRPRPDFVPRP` : shrunken log2 fold change at minimum 0.06?
-1

hey, is shrunken log2 fold change for this one >= 0.06? `RRIRLRPPRLPRPRPRPICEPRP`
1

Evaluate `RRIRVRPPRLPRPRPRPAHEPRP` : shrunken log2 fold change at minimum 0.06?
1

Textbook exercise: given the entry `RRIRYRPPRLPRPRPRPARVPRP` , state whether its shrunken log2 fold change is greater than or equal to 0.06.
-1

Hello, I need to know if `RRIRTRPPRLPRPRPRPPCVPRP` has measured shrunken log2 fold change not below 0.06. Thanks!
-1

Test whether the sequence `RRIRSRPPRLPRPRPRPTREPRP` records shrunken log2 fold change of 0.06 or higher.
1

State whether the measured shrunken log2 fold change reaches 0.06, counting equality as reaching it, for `RRIRNRPPRLPRPRPRPWSQPRP`
-1

# bool: shrunken log2 fold change of `RRIRMRPPRLPRPRPRPVCGPRP` >= 0.06
1

Hi team, for `RRIRERPPRLPRPRPRPTREPRP` , is the recorded shrunken log2 fold change at or above 0.06?
1

Dear colleague, could you confirm whether `RRIRGRPPRLPRPRPRPNVQPRP` has shrunken log2 fold change at or above 0.06?
1

Is the recorded value of shrunken log2 fold change equal to or greater than 0.06 for this sequence? `RRIRERPPRLPRPRPRPADQPRP`
-1

Is shrunken log2 fold change for `RRIRKRPPRLPRPRPRPSVSPRP` at or above 0.06?
1

====

System: Escherichia coli TOP10
Assay: shrunken log2 fold change of peptide-encoding DNA abundance (4.5 h post-induction vs induction); higher = less antimicrobial activity (less host growth inhibition)
Settings: time post-induction: 4.5 h; library: site-saturation at positions 5, 18, 19, 20
assay.metric: shrunken log2 fold change

Field: example entries. Status: answers known.
>>> endpoint_result("RRIRFRPPRLPRPRPRPQPNPRP")
-0.0249
>>> endpoint_result("RRIRQRPPRLPRPRPRPWDKPRP")
-0.153
>>> endpoint_result("RRIRMRPPRLPRPRPRPEIEPRP")
0.0729
>>> endpoint_result("RRIRYRPPRLPRPRPRPVMNPRP")
-0.115
>>> endpoint_result("RRIRVRPPRLPRPRPRPMFPPRP")
0.086
>>> endpoint_result("RRIRARPPRLPRPRPRPWDKPRP")
0.0886
>>> endpoint_result("RRIRFRPPRLPRPRPRPCVRPRP")
-0.0911
>>> endpoint_result("RRIRHRPPRLPRPRPRPNFCPRP")
-0.0463
>>> endpoint_result("RRIRKRPPRLPRPRPRPGEMPRP")
1.62
>>> endpoint_result("RRIRSRPPRLPRPRPRPANCPRP")
-0.411

What is its shrunken log2 fold change for Escherichia coli TOP10? Entry: `RRIRSRPPRLPRPRPRPVHLPRP`
-0.177

What measured shrunken log2 fold change is associated with `RRIRERPPRLPRPRPRPVCKPRP` on Escherichia coli TOP10?
0.0272

Form field - read-out: shrunken log2 fold change; system: Escherichia coli TOP10; submitted item: `RRIRGRPPRLPRPRPRPIFSPRP`
0.312

Query the reported shrunken log2 fold change for Escherichia coli TOP10; item: `RRIRMRPPRLPRPRPRPIHRPRP`
-0.154

Give the reported shrunken log2 fold change for `RRIRSRPPRLPRPRPRPQPIPRP` (system: Escherichia coli TOP10).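 Also: peptides expressed intracellularly from a pBAD plasmid library in pooled LB shake-flask culture, induced with 0.3% L-arabinose, DNA abundance read by NGS, three biological replicates, DESeq2 with apeglm shrinkage.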
0.000168
